# Target: Dappu-RPCHR (Daphnia pulex RPCH receptor) (Daphnia pulex, UniProt A0A240FBD5)
# Sequence (A0A240FBD5 1-451): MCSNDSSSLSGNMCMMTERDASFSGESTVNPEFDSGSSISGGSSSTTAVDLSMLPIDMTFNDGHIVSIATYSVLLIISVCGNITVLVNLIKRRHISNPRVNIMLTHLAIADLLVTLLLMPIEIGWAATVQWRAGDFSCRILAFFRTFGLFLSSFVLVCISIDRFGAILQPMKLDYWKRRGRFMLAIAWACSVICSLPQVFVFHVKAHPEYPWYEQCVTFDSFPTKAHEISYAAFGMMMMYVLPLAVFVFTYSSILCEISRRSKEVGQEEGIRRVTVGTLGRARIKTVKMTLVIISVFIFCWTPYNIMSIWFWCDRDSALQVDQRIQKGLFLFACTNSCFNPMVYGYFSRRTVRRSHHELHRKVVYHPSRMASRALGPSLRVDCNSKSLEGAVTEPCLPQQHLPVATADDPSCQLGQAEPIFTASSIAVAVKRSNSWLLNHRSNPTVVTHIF
# Protocol notes: in vitro cell-based bioluminescence (aequorin Ca2+) assay on Dappu-RPCHR expressing CHO-WTA11 cells
# Reported conditions: Table 2; analogues of Dappu-RPCH
Where a SMILES comes first, the peptide text is derived from it. [ ]: non-standard residue; d: D form. pGlu = O=C1CC[C@@H](C(=O)O)N1
Measured property: EC50 (nM)
Answer with a number only, understood to be in nM.

CC(C)[C@H](NC(=O)[C@@H]1CCC(=O)N1)C(=O)N[C@@H](CC(N)=O)C(=O)N[C@@H](Cc1ccccc1)C(=O)N[C@@H](C)C(=O)N[C@H](C(=O)N[C@@H](CO)C(=O)N[C@@H](Cc1c[nH]c2ccccc12)C(N)=O)[C@@H](C)O [[Ala^5]Dappu-RPCH, pQVNFATSWamide] ([pGlu]VNFATSW-NH2)
3.61

# input For the compound shown here, CC(C)[C@H](NC(=O)[C@@H]1CCC(=O)N1)C(=O)N[C@@H](CC(N)=O)C(=O)N[C@@H](C)C(=O)N[C@@H](CO)C(=O)N[C@H](C(=O)N[C@@H](CO)C(=O)N[C@@H](Cc1c[nH]c2ccccc12)C(N)=O)[C@@H](C)O [[Ala^4]Dappu-RPCH, pQVNASTSWamide] ([pGlu]VNASTSW-NH2) , give the reported EC50.
# output 299
